Target desc: Luciferin 4-monooxygenase (Photinus pyralis)
Test summary: Biochemical firefly luciferase enzyme assay for NPC (AID 624030);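 also: purified P. pyralis luciferase at 10 nM with luciferin and ATP substrate; nearly all actives have a fitted effect of over 70% in size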
Test parameters: purified P. pyralis luciferase, luminescence, 5 min; series mostly up to 58.6 µM
Records with an inconclusive call do not appear. Calls of active or inactive are those of the source. Calls follow the shape of the dose curve; as a rule, active = well fitted inhibition curve with a large enough effect; inconclusive = small, poorly fitted or top-dose-only effect; inactive = flat fitted curve, though single readings scatter.

Molecule	outcome
NCC[C@H](O)C(=O)N[C@@H]1C[C@H](N)[C@@H](O[C@H]2O[C@H](CN)[C@@H](O)[C@H](O)[C@H]2O)[C@H](O)[C@H]1O[C@H]1O[C@H](CO)[C@@H](O)[C@H](N)[C@H]1O	inactive
O=C(O)c1ccc(NC(=O)[C@H](Cc2ccc(O)cc2)NC(=O)c2ccccc2)cc1	inactive
COc1ccccc1N1CCN(CCCC(=O)c2ccc(F)cc2)CC1	inactive
CC12CCC(C[N+](C)(CCC[N+](C)(C)C)C1)C2(C)C (configuration not stated)	inactive
C=CC[C@@H]1/C=C(\C)C[C@H](C)C[C@H](OC)[C@H]2O[C@@](O)(C(=O)C(=O)N3CCCC[C@H]3C(=O)O[C@H](/C(C)=C/[C@@H]3CC[C@@H](O)[C@H](OC)C3)[C@H](C)[C@@H](O)CC1=O)[C@H](C)C[C@@H]2OC	inactive
COc1cc(S(C)=O)ccc1-c1nc2ncccc2[nH]1 (configuration not stated)	inactive
CC1(C)S[C@@H]2[C@H](NC(=O)C3(N)CCCCC3)C(=O)N2[C@H]1C(=O)O	inactive
